Molecular target: Muscarinic acetylcholine receptor M2 (Rattus norvegicus, UniProt P10980)
Sequence (P10980 whole entry): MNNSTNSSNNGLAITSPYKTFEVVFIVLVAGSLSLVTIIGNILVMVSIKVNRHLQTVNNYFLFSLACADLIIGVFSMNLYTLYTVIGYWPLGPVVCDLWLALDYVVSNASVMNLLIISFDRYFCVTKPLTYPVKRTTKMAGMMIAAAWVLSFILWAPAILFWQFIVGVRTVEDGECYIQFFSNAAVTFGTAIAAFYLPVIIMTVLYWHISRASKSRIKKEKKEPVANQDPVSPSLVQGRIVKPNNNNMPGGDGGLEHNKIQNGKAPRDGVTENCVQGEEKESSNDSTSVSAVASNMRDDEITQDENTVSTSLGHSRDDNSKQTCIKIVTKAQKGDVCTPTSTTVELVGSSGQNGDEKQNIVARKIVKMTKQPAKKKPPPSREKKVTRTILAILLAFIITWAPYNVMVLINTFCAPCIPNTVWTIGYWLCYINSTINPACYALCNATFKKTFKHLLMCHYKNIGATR
VALUE TYPE: pKi
Formally, pKi is defined as -log10 of the concentration c, with c in mol/L.

COMPOUND: Cc1ccc(O)c(C(CCN2C[C@H]3C[C@@]3(C)C2)c2ccccc2)c1 (some centres undefined)
ENDPOINT RESULT: 6.66

COMPOUND: Cc1ccc(O)c(C(CCN2CC3C[C@@H]3C2)c2ccccc2)c1 (single isomer, unassigned)
ENDPOINT RESULT: 6.98

COMPOUND: O=C(NCC#CCN1CC2CC2C1)C(O)(c1ccccc1)c1ccccc1 (centres undefined)
ENDPOINT RESULT: 6.19

COMPOUND: O=C(NCC#CCN1CC2CC2C1)C(O)(c1ccccc1)C1CCCCC1 (centres undefined)
ENDPOINT RESULT: 5.45

Now take the following compound into account.
Look up pKi: O=C(NCC#CCN1CC2CC2C1)C(O)(c1ccc(F)cc1)c1ccc(F)cc1 (centres undefined)
6.13

* * *

Target: Muscarinic acetylcholine receptor M2 (Rattus norvegicus, UniProt P10980)
Sequence (P10980 whole entry): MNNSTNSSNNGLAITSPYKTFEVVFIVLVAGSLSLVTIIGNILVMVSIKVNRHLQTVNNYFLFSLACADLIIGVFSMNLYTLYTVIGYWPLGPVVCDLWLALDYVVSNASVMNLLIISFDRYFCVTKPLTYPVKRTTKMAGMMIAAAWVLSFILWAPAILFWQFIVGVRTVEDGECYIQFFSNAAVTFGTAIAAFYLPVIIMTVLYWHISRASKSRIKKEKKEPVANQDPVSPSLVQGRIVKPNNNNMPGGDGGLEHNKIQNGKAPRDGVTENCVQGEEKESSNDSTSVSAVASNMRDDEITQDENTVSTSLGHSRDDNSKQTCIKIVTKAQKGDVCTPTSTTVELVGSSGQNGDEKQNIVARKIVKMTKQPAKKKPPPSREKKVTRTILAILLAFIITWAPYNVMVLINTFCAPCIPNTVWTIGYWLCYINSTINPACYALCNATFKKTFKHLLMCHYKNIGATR
VALUE TYPE: Ki

These recorded examples may help you get a feel for the data.
COMPOUND: Cc1ccc(OCc2ccccc2)c(C(CCN2C[C@H]3C[C@H]3C2)c2ccccc2)c1 (some centres undefined)
ENDPOINT RESULT: > 10 µM
--
COMPOUND: Cc1ccc(OCc2ccccc2)c(C(CCN2C[C@H]3C[C@H]3C2C)c2ccccc2)c1 (some centres undefined)
ENDPOINT RESULT: > 10 µM
--
COMPOUND: Cc1ccc(O)c(C(CCN2C[C@@]3(C)C[C@@]3(C)C2)c2ccccc2)c1 (some centres undefined)
ENDPOINT RESULT: > 1 µM

Now take the following compound into account.
What is its Ki for Muscarinic acetylcholine receptor M2 (Rattus norvegicus, UniProt P10980)? Entry: Cc1ccc(OCc2ccccc2)c(C(CCN2C[C@@]3(C)C[C@@]3(C)C2)c2ccccc2)c1 (some centres undefined)
> 10 µM
